result.type: melting point

State the recorded melting point for this entry: O=C(NCC1CCC(CNS(=O)(=O)c2ccc3ccccc3c2)CC1)C1CCc2ccccc2C1 (stereo not given) 225 to 226 °C

State the recorded melting point for this entry: CCC(CC)Nc1cc(C)nc(Cl)c1N 165 to 166 °C

State the recorded melting point for this entry: COCOc1ccc(C=O)c(Oc2ncc(C(F)(F)F)cc2Cl)c1 93.9 to 94 °C

State the recorded melting point for this entry: COc1cc(C(=O)NS(=O)(=O)c2ccccc2C)ccc1Cc1cn(C)c2ccc(CC3CCN(C)C3=O)cc12 (stereo not given) 115 to 135 °C

State the recorded melting point for this entry: C=Nn1nc(NC)n(OCC)c1=O 169 °C

State the recorded melting point for this entry: CCc1ccc(C(=O)NCc2ccc3c(c2)C(=O)N([C@@]2(C)CCC(=O)NC2=O)C3=O)cc1 160 to 162 °C

State the recorded melting point for this entry: CC1NC(=O)NN=C1c1ccc(N(C)C)cc1 (stereo not given) 255 to 261 °C

State the recorded melting point for this entry: Cc1ccc(C(=O)NC(NC(=S)Nc2ccccc2)C(F)(F)F)cc1 (stereo not given) 205 to 206 °C

State the recorded melting point for this entry: c1ccc(-c2ccn3cnnc3n2)cc1 192 °C

State the recorded melting point for this entry: CCCc1c(C(=O)CO)c2ccc(C(N)=O)cc2n1Cc1ccccc1Cl 231 to 234 °C

State the recorded melting point for this entry: NS(=O)(=O)c1ccc(-c2oc3cc(F)ccc3c(=O)c2-c2ccc(Cl)c(Cl)c2)cc1 190 to 191 °C

State the recorded melting point for this entry: CCOC(=O)c1cn(C)nc1OCc1ccc(OCc2nc(-c3ccccc3)oc2C)c(OC)c1 134 to 135 °C

State the recorded melting point for this entry: O=C(O[C@@H]1CC[C@H]1Br)c1ccccc1 (relative stereo) 38 to 40 °C

State the recorded melting point for this entry: O=C(c1ccccc1)c1ccc(-c2cnn3c(O)ncnc23)cc1 > 300 °C

State the recorded melting point for this entry: CC1c2ccccc2-c2ccccc2N1S(=O)(=O)c1ccc(O)c(O)c1 (stereo not given) 163 to 165 °C

State the recorded melting point for this entry: Cc1ccc(C(=O)Nc2ccc(CN3CCN(C)CC3)c(C(F)(F)F)c2)cc1C#Cc1ccc(NC(C)C)nn1 67 to 68 °C

State the recorded melting point for this entry: Cc1cc2[nH]c3c(c2cc1C)CC(N(C)C)CC3 (stereo not given) 183 to 187 °C

State the recorded melting point for this entry: O=S1(=O)Cc2ccc(F)cc2C(c2ccc(F)cc2)=NN1CCCc1ccccc1 163 to 167 °C

State the recorded melting point for this entry: Cc1cc(C2=NN=C(C(=O)O)Cc3cc4c(cc32)OCO4)ccc1[N+](=O)[O-] 185 to 186 °C

State the recorded melting point for this entry: COC(=O)c1ccc(Cl)nc1OC 68 to 69 °C
